Listed here are molecules together with their documented LD50.
- test-name: acute toxicity investigation in mice
- test-settings: mouse, in vivo, po, read-out: LD50 (mg/kg) p.o.
property-label: LD50

{"molecule": "Cc1noc(C)c1NC(=N)NC(=N)N(C)C [Example 24]", "property-label": "LD50", "obs-value": "> 750 mg/kg"}
{"molecule": "Cc1cc(NC(=N)NC(=N)N2CCNCC2)no1 [Example 30]", "property-label": "LD50", "obs-value": "> 1000 mg/kg"}
{"molecule": "CCCN1CCN(C(=N)NC(=N)Nc2cc(C)on2)CC1 [Example 28]", "property-label": "LD50", "obs-value": "400 mg/kg"}
{"molecule": "CCCCNC(=N)NC(=N)Nc1c(C)noc1C [Example 23]", "property-label": "LD50", "obs-value": "> 750 mg/kg"}
{"molecule": "Cc1noc(C)c1NC(=N)NC(=N)N [Example 22]", "property-label": "LD50", "obs-value": "> 1500 mg/kg"}
{"molecule": "Cc1cc(N(C)C(=N)NC(=N)N)no1 [Example 7]", "property-label": "LD50", "obs-value": "> 1000 mg/kg"}
